B1: ATL3 (parent)
chain: HFKKTKKMGGKDFSFRYQQELEEE

Variants of: B1
experimentDescription: protein stability index of a GFP-peptide fusion (GPS, HEK-293T) (PSI 1-6); higher = more stable;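 also: lentivirally expressed fusions sorted by FACS into six bins by GFP to DsRed ratio, PSI derived from sequencing read proportions per bin multiplied by bin number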
details: c terminus: a fixed tail appended
Note to self: values exactly at 3 are rule met. So protein stability index at or above 3 is rule met, below is rule not met.

Dear colleague, could you confirm whether "M8K" has protein stability index at or above 3?
rule met

Hello, I need to know if "F2T" has measured protein stability index not below 3. Thanks!
rule not met

Assess whether reported protein stability index for "E20V" sits at 3 or higher.
rule not met

Given the entry "Q18R" , answer whether its protein stability index meets or surpasses 3.
rule not met

In plain terms: is recorded protein stability index at least 3 for "G9I" ?
rule not met

State whether the measured protein stability index reaches 3, counting equality as reaching it, for "E22Q"
rule not met
